studySystem: P2Y purinoceptor 12 (Homo sapiens)
Sequence (Q9H244 whole entry): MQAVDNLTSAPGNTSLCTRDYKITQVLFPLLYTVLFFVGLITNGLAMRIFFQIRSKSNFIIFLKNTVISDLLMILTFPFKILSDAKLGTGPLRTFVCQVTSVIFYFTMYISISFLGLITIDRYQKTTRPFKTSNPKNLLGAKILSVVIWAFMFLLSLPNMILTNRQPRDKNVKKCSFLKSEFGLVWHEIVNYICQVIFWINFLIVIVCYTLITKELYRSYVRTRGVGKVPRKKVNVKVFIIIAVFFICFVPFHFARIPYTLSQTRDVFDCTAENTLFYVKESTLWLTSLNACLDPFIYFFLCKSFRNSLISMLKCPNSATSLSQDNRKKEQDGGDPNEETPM
testName: Inhibition of human P2Y12 receptor expressed in CHO cells
Ki strictly less than 2 nM = label 1. Otherwise label 0.

INSERT INTO measurements (cpdsmiles, answerlabel) VALUES
  ('CCCCCOC(=O)N1CCN(C(=O)[C@H](CCC(=O)O)NC(=O)c2cc(N3CCN(CCCN(C)C)CC3)cc(-c3ccccc3)n2)CC1', 'label 0'),
  ('CCCCCOC(=O)N1CCN(C(=O)[C@H](CCC(=O)O)NC(=O)c2cc(N3CCN(CC(N)=O)CC3)cc(-c3ccccc3)n2)CC1', 'label 1'),
  ('CCCCCOC(=O)N1CCN(C(=O)[C@H](CCC(=O)O)NC(=O)c2cc(N3CCC(CN4CCCC4)CC3)cc(-c3ccccc3)n2)CC1', 'label 1'),
  ('CCCCCOC(=O)N1CCN(C(=O)[C@H](CCC(=O)O)NC(=O)c2cc(N3CC[C@H](C(=O)N(CC)CC)C3)cc(-c3ccccc3)n2)CC1', 'label 1'),
  ('CCCCCOC(=O)N1CCN(C(=O)[C@H](CCC(=O)O)NC(=O)c2cc(N3CC(O)C3)cc(-c3ccccc3)n2)CC1', 'label 0'),
  ('CCCCCOC(=O)N1CCN(C(=O)[C@H](CCC(=O)O)NC(=O)c2cc(N3CC(N4CCOCC4)C3)cc(-c3ccccc3)n2)CC1', 'label 0');

Please look at the following molecule next.
[ask] Is it true that Ki reported for `CCCCOC(=O)N1CCN(C(=O)[C@H](CCC(=O)O)NC(=O)c2cc(N3CCC(CNCC)CC3)cc(-c3ccccc3)n2)CC1` is less than 2 nM?
[reply] label 0

====

Recorded measurements of fraction unbound at 0.2 µM, one per entry
testName: Protein binding in human plasma assessed as fraction unbound at 0.2 uM
Number only, no unit.

INSERT INTO results (cpdsmiles, valuereported) VALUES
  ('CCCCOC(=O)N1CCN(C(=O)[C@H](CCC(=O)O)NC(=O)c2cc(N3CCC(C(=O)N4CCCC4)CC3)cc(-c3ccccc3)n2)CC1', 0.034);

Reported fraction unbound at 0.2 µM ( `CCCCCOC(=O)N1CCN(C(=O)[C@H](CCC(=O)O)NC(=O)c2cc(N3CCC(C(=O)N4CCCC4)CC3)cc(-c3ccccc3)n2)CC1` ) = 0.053

====

testName: Volume of distribution at steady state in Beagle dog at 0.2 mg/kg, iv and 0.2 mg/kg, po
Format: ADME, organism-based, Canis lupus familiaris
testParameters: in vivo, read-out: Vdss
outcomeMeasure: Vd (L/kg)
Kindly answer with a numeric value in L/kg, unit omitted.

INSERT INTO assay_data (cpdsmiles, outcomemeasure, valuereported) VALUES
  ('CCCCCOC(=O)N1CCN(C(=O)[C@H](CCC(=O)O)NC(=O)c2cc(N3CCC(C(=O)N(CC)CC)CC3)cc(-c3ccccc3)n2)CC1', 'Vd', 0.12);

Reported Vd ( `CCCCCOC(=O)N1CCN(C(=O)[C@H](CCC(=O)O)NC(=O)c2cc(N3CCC(COC)CC3)cc(-c3ccccc3)n2)CC1` ) = 0.14

====

testName: Antiplatelet activity in human platelet rich plasma assessed as inhibition of ADP-induced platelet aggregation relative to AZD-6140
Assay type: functional
Decide by fold change (FC): equal to or exceeding 2 means MET, less means NOT MET.

Check out these entries, answers already filled in.
INSERT INTO measurements (compound, answerlabel) VALUES
  ('CCCCCOC(=O)N1CCN(C(=O)[C@H](CCC(=O)O)NC(=O)c2cc(N3CCN(C(=O)CN(C)C)CC3)cc(-c3ccccc3)n2)CC1', 'MET'),
  ('CCCCCOC(=O)N1CCN(C(=O)[C@H](CCC(=O)O)NC(=O)c2cc(N3CCCC(OC)C3)cc(-c3ccccc3)n2)CC1 (some centres not stated)', 'MET'),
  ('CCCCCOC(=O)N1CCN(C(=O)[C@H](CCC(=O)O)NC(=O)c2cc(N3CC[C@@H](C(=O)N(C)C)C3)cc(-c3ccccc3)n2)CC1', 'MET'),
  ('CCCCOC(=O)N1CCN(C(=O)[C@H](CCC(=O)O)NC(=O)c2cc(N3CCC(CN(CC)CC)CC3)cc(-c3ccccc3)n2)CC1', 'MET');

[ask] Evaluate `CCCCCOC(=O)N1CCN(C(=O)[C@H](CCC(=O)O)NC(=O)c2cc(N3CCC(C(=O)NC)CC3)cc(-c3ccccc3)n2)CC1` : fold change (FC) at minimum 2?
[reply] NOT MET

[ask] Evaluate `CCCCCOC(=O)N1CCN(C(=O)[C@H](CCC(=O)O)NC(=O)c2cc(N3CCC(COC)CC3)cc(-c3ccccc3)n2)CC1` : fold change (FC) at minimum 2?
[reply] MET

[ask] Evaluate `CCCCCOC(=O)N1CCN(C(=O)[C@H](CCC(=O)O)NC(=O)c2cc(N3CCN(CC(=O)N4CCCC4)CC3)cc(-c3ccccc3)n2)CC1` : fold change (FC) at minimum 2?
[reply] MET

[ask] Evaluate `CCCCCOC(=O)N1CCN(C(=O)[C@H](CCC(=O)O)NC(=O)c2cc(N3CCC(C(=O)N(CC)CC)CC3)cc(-c3ccccc3)n2)CC1` : fold change (FC) at minimum 2?
[reply] NOT MET

[ask] Evaluate `CCCCCOC(=O)N1CCN(C(=O)[C@H](CCC(=O)O)NC(=O)c2cc(N3CCC(CNCC)CC3)cc(-c3ccccc3)n2)CC1` : fold change (FC) at minimum 2?
[reply] NOT MET

[ask] Evaluate `CCCCCOC(=O)N1CCN(C(=O)[C@H](CCC(=O)O)NC(=O)c2cc(N3CC[C@H](OCC(=O)N(C)C)C3)cc(-c3ccccc3)n2)CC1` : fold change (FC) at minimum 2?
[reply] NOT MET

[ask] Evaluate `CCCCCCOC(=O)N1CCN(C(=O)[C@H](CCC(=O)O)NC(=O)c2cc(N3CCC(C(=O)N(CC)CC)CC3)cc(-c3ccccc3)n2)CC1` : fold change (FC) at minimum 2?
[reply] NOT MET

[ask] Evaluate `CCCCCOC(=O)N1CCN(C(=O)[C@H](CCC(=O)O)NC(=O)c2cc(N3CCC(CN)CC3)cc(-c3ccccc3)n2)CC1` : fold change (FC) at minimum 2?
[reply] NOT MET

[ask] Evaluate `CCCCCOC(=O)N1CCN(C(=O)[C@H](CCC(=O)O)NC(=O)c2cc(N3CC[C@H](C(=O)N(CC)CC)C3)cc(-c3ccccc3)n2)CC1` : fold change (FC) at minimum 2?
[reply] MET

[ask] Evaluate `CCCCOC(=O)N1CCN(C(=O)[C@H](CCC(=O)O)NC(=O)c2cc(N3CCC(C(=O)N4CCCC4)CC3)cc(-c3ccccc3)n2)CC1` : fold change (FC) at minimum 2?
[reply] NOT MET

[ask] Evaluate `CCCCCOC(=O)N1CCN(C(=O)[C@H](CCC(=O)O)NC(=O)c2cc(N3CCN(CCN)CC3)cc(-c3ccccc3)n2)CC1` : fold change (FC) at minimum 2?
[reply] NOT MET

[ask] Evaluate `CCCCOC(=O)N1CCN(C(=O)[C@H](CCC(=O)O)NC(=O)c2cc(N3CCC(CNC)CC3)cc(-c3ccccc3)n2)CC1` : fold change (FC) at minimum 2?
[reply] NOT MET

[ask] Evaluate CCCCCOC(=O)N1CCN(C(=O)[C@H](CCC(=O)O)NC(=O)c2cc(N3CCCC(N)C3)cc(-c3ccccc3)n2)CC1 (some centres not stated) : fold change (FC) at minimum 2?
[reply] MET

[ask] Evaluate `CCCCCOC(=O)N1CCN(C(=O)[C@H](CCC(=O)O)NC(=O)c2cc(N3CCC[C@@H](O)C3)cc(-c3ccccc3)n2)CC1` : fold change (FC) at minimum 2?
[reply] MET

[ask] Evaluate `CCCCCOC(=O)N1CCN(C(=O)[C@H](CCC(=O)O)NC(=O)c2cc(N3CCN(C(=O)N(CC)CC)CC3)cc(-c3ccccc3)n2)CC1` : fold change (FC) at minimum 2?
[reply] MET
